The origin of these recorded values is PubChem BioAssay (NCI).

Answer each item with its documented growth.
- Test system: SR leukemia
- procedureDetails: NCI-60 one-dose screen, 48 h (100 = growth as untreated, 0 = no growth, -100 = all killed)
- assayConditions: 10 µM unless noted
The panel holds about 83,000 compounds, 20% with a hit somewhere; the sample as a whole holds those more often. The source made the active and inactive calls. Rule for the calls: active = growth percent below 10; inactive = the rest.

What value of growth on SR leukemia does CC/C=C\CCC/C=C1/C(=O)C=C[C@@H]1C/C=C\CCCC(=O)O have?
8.78% (active)

Continue with Cc1ccc2nc(NC(=O)CSc3nc(Nc4ccc([N+](=O)[O-])cc4)c(C#N)c(-c4ccccc4)n3)sc2c1
47.6% (inactive)

Continue with Cc1ccc(C(=O)C2=C(O)C(=O)N(Cc3cccnc3)C2c2ccccc2F)o1 (centres undefined)
97.3% (inactive)

Continue with NC(=N\N=C/c1cccc([N+](=O)[O-])c1)/C(N)=N\N=C/c1cccc([N+](=O)[O-])c1
71.3% (inactive)

Continue with Cc1cc(NCCCCNc2ccnc3cc(Cl)ccc23)nc(Nc2ccc(C(=O)N3CCCC3)cc2)n1
-28.9% (active)

Continue with C=C1C(=O)O[C@H]2[C@H]1CC/C(COC(=O)C(=O)c1cn(C)c3ccc(OC)cc13)=C\CC[C@@]1(C)O[C@@H]21
2.42% (active)

Continue with O=C(CCCCCCN1CC(=O)N2[C@@H](c3ccccc3Cl)c3[nH]c4ccccc4c3C[C@H]2C1=O)NO
15.9% (inactive)

Continue with C=CCn1c(C)nc2cc(Nc3nc(Cl)nc4ccccc34)ccc21
94.7% (inactive)

Continue with CCOc1ccccc1-c1cc(-c2cccs2)c(C#N)c(=O)[nH]1
77.4% (inactive)

----------
Answer each item with its documented growth.
- Tested on: A498 renal
- procedureDetails: NCI-60 one-dose screen, 48 h (100 = growth as untreated, 0 = no growth, -100 = all killed)
- assayConditions: 10 µM unless noted
This is part of a sample that, as a whole, favours compounds with a hit. Of some 83,000 tested, about 20% had one in any assay. Activity calls are given as the source filed them. Rule for the calls: active = growth percent below 10; inactive = the rest.

Given the molecule Fc1cnc(NC2CC2)nc1-c1cnc2ccc(N3CCOCC3)cn12 , what is its reported growth?
-29.5% (active)

Continue with CC(=O)N1C(=S)NC(=O)C1Cn1c(-c2ccccc2)nc2ccccc21 (centres undefined)
70.7% (inactive)

Continue with Cc1cc(NCc2cc(Nc3ccnc4cc(Cl)ccc34)ccc2F)nc(N2CCSCC2)n1
45% (inactive)

Continue with Cc1cc(NCc2cc(Nc3ccnc4cc(Cl)ccc34)ccc2F)nc(N2CCCC2)n1
59.2% (inactive)

Continue with Cc1cccc(-c2nc(N(C)c3ccc4ncsc4c3)c3ccccc3n2)n1
78.8% (inactive)

Continue with O=C(CSc1nnc(-c2ccc(NC(=O)c3cccnc3)cc2)o1)N[C@@H](Cc1ccc(O)cc1)C(=O)O
117% (inactive)

Continue with COc1ccc(C2=NN(C(=O)c3cc(OC)c(OC)c(OC)c3)C(c3ccc(Cl)cc3)C2)cc1OC (centres undefined)
-1.72% (active)

Continue with CCc1c2c(nc3ccc(OC(=O)OCc4ccc(B5OC(C)(C)C(C)(C)O5)cc4)cc13)-c1cc3c(c(=O)n1C2)COC(=O)[C@]3(O)CC
-65.1% (active)

Continue with CCc1ccccc1-n1c(-c2ccc(Cl)cc2)cc(-c2ccc(Cl)cc2)c(C#N)c1=O
94.9% (inactive)

Continue with N#C/C(=C\c1ccc(Br)cc1)n1nnc2cc(F)c(F)cc21
26.8% (inactive)

Continue with COc1cc(N=Nc2ccc(N)cc2)c(OC)cc1N=Nc1ccccc1.[Cl][Zn][Cl]
116% (inactive)

Continue with Cc1ccc(NS(=O)(=O)c2ccc3c(c2)C2OCCC2C(c2ccc(C(=O)C(C)C)cc2)N3)cc1C (centres undefined)
40.1% (inactive)

Continue with C=C(C)[C@@H]1CC=C2c3sc(-c4ccc(C)cc4)nc3C[C@@H](C)[C@]2(C)C1
106% (inactive)

Continue with CC1=C([Se]CC(OC(=O)CC[Se]c2ccccc2)C(=O)NCCCCCC(=O)OCc2ccccc2)C(=O)c2ccccc2C1=O (centres undefined)
71.9% (inactive)

Continue with CN(C)CCNc1nc2ccccc2c2c1c1c(n2Cc2ccccc2)-c2ccccc2C1=O
-96.4% (active)

Continue with NC[C@H](O)c1ccc(O)c(O)c1
112% (inactive)

Continue with N#CC1=C(NC=O)Oc2c(ccc3ccccc23)C1c1ccccc1 (centres undefined)
22.9% (inactive)

Continue with Cc1cc(Cl)ccc1Nc1nc(C(F)(F)F)ccc1C(=O)N/N=C/c1ccc(N(C)C)cc1
34.7% (inactive)

Continue with CCCCCCCCCCCC(c1ccccc1)[N+](C)(C)C (centres undefined)
55.4% (inactive)

Continue with COc1ccc(/C=N/C2=C(C#N)C(c3ccc(OC)cc3)c3ccc4ccccc4c3O2)cc1 (centres undefined)
26.6% (inactive)

Continue with Cc1ccc(Nc2ccc(Nc3ccc(C)cc3)c3c2C(=O)c2cccc(O)c2C3=O)cc1
116% (inactive)

Continue with N#CC1=C(/N=C/c2ccccc2)Oc2c(ccc3ccccc23)C1c1ccccc1 (centres undefined)
16.3% (inactive)

Continue with COc1ccc(-c2nc(SCCC(C)C)nc(N/N=C\c3cccc([N+](=O)[O-])c3)c2C#N)cc1
41.2% (inactive)

Continue with N#C/C(=C/C=C/c1cccc(Cl)c1)S(=O)c1ccccc1 (centres undefined)
-69.9% (active)

Continue with O=C(c1ccc(Nc2nccc(NCCCCNc3ccnc4cc(Cl)ccc34)n2)cc1)N1CCCCC1
68% (inactive)

Continue with COc1cc(-c2nn(-c3ccccc3)cc2-c2ccnc(NCCNS(=O)(=O)c3ccc(Cl)cc3)n2)ccc1Cl
32% (inactive)

Continue with COc1cc(C(=O)c2cc(C)c3[nH]c4ccc(Cl)cc4c3c2C)cc(OC)c1OC
-9.44% (active)

Continue with CCN(CC)CCCC(C)Nc1c2ccc(Cl)cc2nc2ccc(O)cc12 (centres undefined)
90.7% (inactive)

Continue with c1ccc2cc3nc4cc5ccccc5cc4nc3cc2c1
107% (inactive)

Continue with CCCCNC(=O)Oc1ccc2c(=O)c3sc4c(=O)c5ccccc5c(=O)c4c3c(=O)c2c1
-98.8% (active)

Continue with Cc1cc(NCc2cc(Nc3ccnc4cc(Cl)ccc34)ccc2F)nc(Cl)n1
41.3% (inactive)

Continue with CC(=O)O[C@]1(C(C)=O)CCC2C3C[C@H](C)C4=CC(=O)CC[C@]4(C)C3CC[C@@]21C (some centres undefined)
103% (inactive)

Continue with Cc1c(C)c2c(c(C)c1OCC(=O)O)CC[C@@](C)(CCC[C@@H](C)CCC[C@@H](C)CCCC(C)C)O2
-37.5% [50 µM] (active)

Continue with COc1ccc(-c2nc(SC(C)C)nc(NNC(N)=S)c2C#N)cc1
50.2% (inactive)

Continue with CS(=O)(=O)c1ccc(Nc2nc(N[C@H]3CCCC[C@H]3N)nc3cc[nH]c(=O)c23)cc1
51.8% (inactive)

Continue with Cc1ccc2nc(NC(=O)CSc3nc(Nc4ccc([N+](=O)[O-])cc4)c(C#N)c(-c4ccccc4)n3)sc2c1
116% (inactive)

Continue with C=C(C)[C@@H]1CC[C@]2(C(=O)NC3CCCCC3)CC[C@]3(C)[C@H](CC[C@@H]4[C@@]5(C)CCC(=O)C(C)(C)[C@@H]5CC[C@]43C)[C@@H]12
83.3% (inactive)

Continue with CN(C)CCCn1c(=O)c2ccccc2c2ccccc21
104% (inactive)

Continue with CCN(CC)CCn1nc2c3c(cccc3c1=O)-c1ccccc1-2
24.3% (inactive)
